// provenance: patent US20110098217A1

- measuredTarget: human glucagon receptor (human, UniProt P47871 26-477)
- Sequence (P47871 26-477): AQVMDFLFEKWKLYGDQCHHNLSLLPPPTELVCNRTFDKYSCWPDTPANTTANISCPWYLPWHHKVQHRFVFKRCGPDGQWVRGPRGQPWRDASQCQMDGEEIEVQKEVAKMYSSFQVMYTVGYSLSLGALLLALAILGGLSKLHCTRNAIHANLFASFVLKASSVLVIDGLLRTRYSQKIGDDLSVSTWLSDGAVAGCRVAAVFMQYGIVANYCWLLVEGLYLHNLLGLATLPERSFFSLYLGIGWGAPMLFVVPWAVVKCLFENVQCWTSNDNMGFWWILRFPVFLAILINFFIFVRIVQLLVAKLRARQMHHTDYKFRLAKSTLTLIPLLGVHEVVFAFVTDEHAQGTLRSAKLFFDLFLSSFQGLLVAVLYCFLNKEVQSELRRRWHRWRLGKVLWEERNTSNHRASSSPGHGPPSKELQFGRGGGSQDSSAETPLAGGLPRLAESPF
- procedureDetails: cell-based or functional assay
Bridge positions count the residues as written; N and C are the ends. Square brackets hold non-standard residues; d marks the D form. Primed or numbered codes have the meaning given here. Ends that are not written are not given here. PEG 20 kDa″ = 20 kDa polyethylene glycol (PEG); PEG 20 kDa = 20 kDa polyethylene glycol; PhLac = O=C(O)[C@@H](O)Cc1ccccc1
Listed below: Glucagon antagonism IC50 (inhibit 0.2-0.8 nM glucagon) values for each entry.
Numeric answer only, unit nM assumed.

Known results for binders:
>  <binder>
[PhLac]TSDYSKYLDERRAKDFVQWLMDTGPGPGPGPGPC(PEG 20 kDa″)-NH2 (lactam 11-15) [[PLA6, E16K20(Lactam),D28,GP-C40(20 kDa)]G(6-40)]

>  <numericResult>
423

$$$$
>  <binder>
[PhLac]TSDYSKYLDERRAQDFVC(PEG 20 kDa)WLMDT-NH2 (lactam 7-11) [[PLA6, K12E16(lactam), C24(20 kDa), D28]G(6-29)]

>  <numericResult>
628

$$$$

Query block: Which Glucagon antagonism IC50 (inhibit 0.2-0.8 nM glucagon) is listed for [PhLac]TSDYSKYLDERRAKDFVQWLMDGGPSSGAPPPSC(PEG 20 kDa″)-NH2 (lactam 11-15) [[PLA6, E16K20(Lactam),D28,G29, CEX-C40(20 kDa)]G(6-40)] ?
Result block: 335
